Where do these numbers come from? They come from paper PMC10093605.

molecular target: ABCB1 (Homo sapiens, UniProt P08183); construct: membrane vesicles of ABCB1-overexpressing High Five insect cells; assay: vanadate-sensitive ATPase, endpoint Pi assay, membrane vesicles; details: read-out: concentration to produce half of the maximum stimulation
Sequence (P08183 whole entry): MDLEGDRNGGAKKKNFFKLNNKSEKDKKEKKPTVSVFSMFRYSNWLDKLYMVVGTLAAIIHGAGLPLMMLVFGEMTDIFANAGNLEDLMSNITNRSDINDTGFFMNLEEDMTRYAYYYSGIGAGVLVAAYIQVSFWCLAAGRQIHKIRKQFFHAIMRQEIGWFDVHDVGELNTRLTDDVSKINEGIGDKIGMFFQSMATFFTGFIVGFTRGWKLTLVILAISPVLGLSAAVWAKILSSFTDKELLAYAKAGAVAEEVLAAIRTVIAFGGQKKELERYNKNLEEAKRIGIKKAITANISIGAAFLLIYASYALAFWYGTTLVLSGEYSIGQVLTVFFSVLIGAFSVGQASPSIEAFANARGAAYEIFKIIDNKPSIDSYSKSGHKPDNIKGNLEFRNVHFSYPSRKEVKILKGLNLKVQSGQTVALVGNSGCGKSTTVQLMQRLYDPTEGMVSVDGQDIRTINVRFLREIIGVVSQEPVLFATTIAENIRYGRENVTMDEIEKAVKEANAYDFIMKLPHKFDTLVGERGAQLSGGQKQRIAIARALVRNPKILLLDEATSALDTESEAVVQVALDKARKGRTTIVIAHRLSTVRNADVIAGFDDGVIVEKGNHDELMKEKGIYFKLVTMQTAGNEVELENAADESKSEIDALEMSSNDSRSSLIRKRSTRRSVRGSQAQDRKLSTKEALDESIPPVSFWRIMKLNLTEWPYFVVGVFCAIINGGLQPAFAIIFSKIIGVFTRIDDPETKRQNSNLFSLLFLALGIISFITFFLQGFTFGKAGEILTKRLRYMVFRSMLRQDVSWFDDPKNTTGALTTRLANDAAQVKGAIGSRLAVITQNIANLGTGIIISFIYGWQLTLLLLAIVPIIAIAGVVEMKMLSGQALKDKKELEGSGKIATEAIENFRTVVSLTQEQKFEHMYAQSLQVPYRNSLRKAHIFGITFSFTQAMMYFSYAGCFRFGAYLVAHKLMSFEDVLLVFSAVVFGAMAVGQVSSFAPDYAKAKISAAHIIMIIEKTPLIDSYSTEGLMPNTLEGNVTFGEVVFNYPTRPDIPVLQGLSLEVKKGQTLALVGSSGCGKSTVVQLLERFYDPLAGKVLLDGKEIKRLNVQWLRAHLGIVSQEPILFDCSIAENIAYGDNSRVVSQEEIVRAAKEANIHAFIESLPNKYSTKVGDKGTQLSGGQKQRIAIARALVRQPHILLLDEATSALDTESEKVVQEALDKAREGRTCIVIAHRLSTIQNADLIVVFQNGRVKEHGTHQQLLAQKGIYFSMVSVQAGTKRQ
pEC50: −log10 of the molar value.
result type: pEC50

Using the record for CCOC(=O)c1cnc2ccc(-c3cncc(NS(=O)(=O)c4ccccc4)c3)cn12 , report its pEC50.
~5.77

---

Biological target: ABCG2 (Homo sapiens)
Construct: membrane vesicles of ABCG2-overexpressing High Five insect cells; homodimer
Sequence (Q9UNQ0 whole entry): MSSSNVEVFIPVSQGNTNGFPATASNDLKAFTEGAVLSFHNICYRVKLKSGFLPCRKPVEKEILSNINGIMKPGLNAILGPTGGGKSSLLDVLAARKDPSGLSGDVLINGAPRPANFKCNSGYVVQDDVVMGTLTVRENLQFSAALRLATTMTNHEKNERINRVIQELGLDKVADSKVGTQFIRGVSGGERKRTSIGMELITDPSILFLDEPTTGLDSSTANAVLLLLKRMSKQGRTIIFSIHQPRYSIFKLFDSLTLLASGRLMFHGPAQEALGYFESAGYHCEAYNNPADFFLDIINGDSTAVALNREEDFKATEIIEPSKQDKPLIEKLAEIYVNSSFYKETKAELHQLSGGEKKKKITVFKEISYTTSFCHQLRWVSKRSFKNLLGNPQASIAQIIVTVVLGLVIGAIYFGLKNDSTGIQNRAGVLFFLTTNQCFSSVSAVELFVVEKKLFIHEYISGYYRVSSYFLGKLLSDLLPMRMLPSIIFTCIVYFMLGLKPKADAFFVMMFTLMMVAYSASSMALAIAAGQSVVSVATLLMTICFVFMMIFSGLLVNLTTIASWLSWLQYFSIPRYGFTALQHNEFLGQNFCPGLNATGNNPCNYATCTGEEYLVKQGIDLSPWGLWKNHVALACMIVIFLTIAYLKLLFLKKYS
Test: vanadate-sensitive ATPase, endpoint Pi assay, membrane vesicles
Details: read-out: concentration to produce half of the highest stimulation
Excerpt: vanadate-sensitive ATPase, endpoint Pi assay, membrane vesicles on ABCG2 | ABCG2-mediated ATP hydrolysis was stimulated by HS-173 in a concentration-dependent manner
result type: EC50

Using the record for CCOC(=O)c1cnc2ccc(-c3cncc(NS(=O)(=O)c4ccccc4)c3)cn12 [HS-173] , report its EC50.
~400 nM
